B1: CPEB3 Ribozyme (parent)
chain: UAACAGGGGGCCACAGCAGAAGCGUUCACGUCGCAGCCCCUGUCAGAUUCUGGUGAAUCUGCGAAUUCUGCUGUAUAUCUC

# Variants of: B1
# assayNotes: self-cleavage, relative activity (ratio to wild type); higher = more cleavage; in vitro, sequencing
propertyName: self-cleavage
Numbers only.

Some entries whose results are on file:
| variantNotation | self-cleavage |
| --- | --- |
| A64G A77G | 0.84 |
| U48C A77G | 0.6 |

Below are some variants; for each one, tell me its self-cleavage.
1. A18G G63C
2. C17U A28G
3. C12A G52A
4. U41C U51G
5. A64C U72C
6. G8C U76C

[A]
1. 0.55
2. 0.36
3. 1.23
4. 0.81
5. 0.48
6. 0.4

For each listed entry, give its self-cleavage.
1. A56U G63C
2. C59U U78A
3. C29U C40U
4. C44U U51A
5. C12G A20G
6. U43G A57G

[A]
[0.61, 1.17, 0.51, 0.35, 0.44, 0.21]

Hello, I would appreciate it if you could give self-cleavage for each entry below.
1. C50U A64U
2. G9U A75U
3. U1C U41G
4. G46U U49A
5. U66A U74G
6. A5U C34U
7. U66A U78C
8. G10A A28G

[A]
1. 0.52
2. 0.17
3. 0.53
4. 0.29
5. 0.59
6. 0.55
7. 0.31
8. 0.21

# credit: the RNAGym collection of RNA variant scans (doi:10.1093/nar/gkz1192)
